Hey, just so you know, these numbers are from BindingDB's records for doi:10.1021/jm00055a002.

target: Tissue-type plasminogen activator (Homo sapiens); experiment: Compound was tested in vitro for inhibitory activity against t-PA (tissue plasminogen activator)
measured-property: IC50 (µM)

For orientation, consider the following solved cases.
| compound | IC50 (µM) |
| --- | --- |
| CC(C)(C)OC(=O)N[C@@H](C(=O)N1CCC[C@H]1C(=O)NC(C=O)CCCNC(=N)N)c1cccc2ccccc12 (stereo partly drawn) | 20 |
| CC(C)(C)OC(=O)N[C@@H](C(=O)N1CCC[C@H]1C(=O)N[C@H](C=O)CCCN=C(N)N)c1ccc(F)cc1 | 18 |
| CN[C@@H](C(=O)N1CCC[C@H]1C(=O)N[C@H](C=O)CCCNC(=N)N)c1ccccc1 | 42 |
| CC(C)(C)OC(=O)N[C@@H](C(=O)N1CCC[C@H]1C(=O)NC(C=O)CCCNC(=N)N)c1ccc2ccccc2c1 (stereo partly drawn) | 12 |
| CC(C)(C)OC(=O)N[C@H](C(=O)N1CCC[C@H]1C(=O)N[C@H](C=O)CCCN=C(N)N)c1ccc(F)cc1 | 91 |

P = CC(C)(C)OC(=O)NC(C(=O)N1CCC[C@H]1C(=O)NC(C=O)CCCNC(=N)N)c1cccc(C(F)(F)F)c1 (stereo partly drawn)
Q = CC(C)(C)OC(=O)NC(C(=O)N1CCC[C@H]1C(=O)NC(C=O)CCCNC(=N)N)c1ccc(Cl)c(Cl)c1 (stereo partly drawn)
R = CO[C@H](C(=O)N1CCC[C@H]1C(=O)NC(C=O)CCCNC(=N)N)c1ccccc1 (stereo partly drawn)
*Q* rank_up(items): orders items by reported IC50 in ascending numerical order. Answer format: the labels, in the requested order.
*A* P, Q, R
(P: 15 µM, Q: 31 µM, R: 860 µM)
